Origin of measurements: patent US20220177587A1

CTLA4 MFI at 33.3 nM values, listed per item
# experimental_system: huCTLA4 (Homo sapiens, UniProt P16410)
# Sequence (P16410 36-223): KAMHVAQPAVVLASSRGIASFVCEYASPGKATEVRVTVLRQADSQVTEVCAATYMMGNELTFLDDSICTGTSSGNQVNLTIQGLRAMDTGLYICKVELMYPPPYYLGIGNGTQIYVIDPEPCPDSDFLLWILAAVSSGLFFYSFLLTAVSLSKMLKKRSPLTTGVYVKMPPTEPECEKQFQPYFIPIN
# method_notes: Flow binding to CHO cells stably expressing CTLA4
# Parameters: huCTLA4 and huPD-L1, full-length mammalian surface expression constructs were generated; expressed in transfected cells; host or cells: CHO cells, lentiviral transduction, sorted to >98% purity
# particulars: Table E20; CHO cells stably expressing CTLA4; 33.3 nM
# answer = number (no unit)

Below, 6 molecules whose answers are already recorded.
>>> endpoint_result("E35D/V68M/A71G/D90G (protein) VIHVTKEVKEVATLSCGHNVSVEELAQTRIYWQKDKKMVLTMMSGDMNIWPEYKNRTIFDITNNLSIMILGLRPSDEGTYECVVLKYEKGAFKREHLAEVTLSVKAD")
23290
>>> endpoint_result("H18Y/V68M/A71G/D90G (protein) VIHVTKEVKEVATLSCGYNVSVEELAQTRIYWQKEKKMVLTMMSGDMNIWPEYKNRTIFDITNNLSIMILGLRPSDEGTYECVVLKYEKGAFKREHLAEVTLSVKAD")
22321
>>> endpoint_result("A26E/V68M/A71G/D90G (protein) VIHVTKEVKEVATLSCGHNVSVEELEQTRIYWQKEKKMVLTMMSGDMNIWPEYKNRTIFDITNNLSIMILGLRPSDEGTYECVVLKYEKGAFKREHLAEVTLSVKAD")
8666
>>> endpoint_result("H18Y/E35D/A71G/D90G (protein) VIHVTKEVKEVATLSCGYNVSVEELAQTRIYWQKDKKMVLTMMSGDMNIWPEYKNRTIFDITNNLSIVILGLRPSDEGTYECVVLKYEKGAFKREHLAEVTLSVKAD")
25886
>>> endpoint_result("A26E/E35D/M47L/D90G (protein) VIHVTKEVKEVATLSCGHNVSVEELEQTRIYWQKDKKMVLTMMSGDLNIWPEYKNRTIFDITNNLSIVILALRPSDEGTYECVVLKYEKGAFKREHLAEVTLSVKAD")
18167
>>> endpoint_result("E35D/M47L/A71G/D90G (protein) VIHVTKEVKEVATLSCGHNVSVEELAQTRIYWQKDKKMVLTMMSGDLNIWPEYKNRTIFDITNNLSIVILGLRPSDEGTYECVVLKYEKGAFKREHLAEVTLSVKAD")
20921

Qu. Bench note: what CTLA4 MFI at 33.3 nM did H18Y/M47L/A71G/D90G (protein) VIHVTKEVKEVATLSCGYNVSVEELAQTRIYWQKEKKMVLTMMSGDLNIWPEYKNRTIFDITNNLSIVILGLRPSDEGTYECVVLKYEKGAFKREHLAEVTLSVKAD show?
Ans. 18162

Qu. Value lookup for CTLA4 MFI at 33.3 nM; key = H18Y/A26E/A71G/D90G (protein) VIHVTKEVKEVATLSCGYNVSVEELEQTRIYWQKEKKMVLTMMSGDMNIWPEYKNRTIFDITNNLSIVILGLRPSDEGTYECVVLKYEKGAFKREHLAEVTLSVKAD
Ans. 19878
